Let's look at some compounds and their measured IC50.
- Target Entity: human BACE1 (rhBACE1) (Homo sapiens)
- Experimental Protocol: Caliper BACE1 activity assay (microfluidic capillary electrophoresis)
- Assay type: biochemical
- Set-up: containing human BACE1 (extracellular domain)
- Measurement Setup: 12 nM rhBACE1, 1 μM FAM-substrate, pH 4.4
Positions of bridges follow the written chain, without caps; N, C: chain ends. Residues, ends and D or L forms follow the SMILES beside them.
Quick reminder: number only, in nM, skip the unit.

INSERT INTO results (compound, quantity, readout_units, val) VALUES
  ('CC[C@H](C)[C@@H]1NC(=O)CNC(=O)[C@H](CC(C)C)NC(=O)[C@H](CC(C)C)NC(=O)[C@H](CCCNC(=N)N)NC(=O)[C@@H](NC(=O)[C@H](Cc2ccc(O)cc2)NC(=O)[C@H](CCSC)NC(=O)[C@H](CO)NC(=O)[C@H](CCC(=O)O)NC(C)=O)CSSC[C@@H](C(=O)NCC(N)=O)NC(=O)CNC1=O [BACE030] (Ac-ESMYCRLLGIGCG-NH2; disulfide 5-12)', 'IC50', 'nM', 18);

For the next question, use this compound.
Q: Name the recorded IC50 for CC[C@H](C)[C@@H]1NC(=O)[C@H](C)NC(=O)[C@H](CC(C)C)NC(=O)[C@H](CC(C)C)NC(=O)[C@H](CCCNC(=N)N)NC(=O)[C@@H](NC(=O)[C@H](Cc2ccc(O)cc2)NC(=O)[C@H](CCSC)NC(=O)[C@H](CO)NC(=O)[C@H](CCC(=O)O)NC(=O)[C@H](CCC(=O)O)NC(=O)[C@H](CC(N)=O)NC(C)=O)CSSC[C@@H](C(=O)NCC(N)=O)NC(=O)CNC1=O [BACE051] (Ac-NEESMYCRLLAIGCG-NH2; disulfide 7-14) .
Result: 18

---

- Target Entity: human BACE1 (rhBACE1) (Homo sapiens, UniProt P56817)
- Sequence (P56817 46-457 limits assumed): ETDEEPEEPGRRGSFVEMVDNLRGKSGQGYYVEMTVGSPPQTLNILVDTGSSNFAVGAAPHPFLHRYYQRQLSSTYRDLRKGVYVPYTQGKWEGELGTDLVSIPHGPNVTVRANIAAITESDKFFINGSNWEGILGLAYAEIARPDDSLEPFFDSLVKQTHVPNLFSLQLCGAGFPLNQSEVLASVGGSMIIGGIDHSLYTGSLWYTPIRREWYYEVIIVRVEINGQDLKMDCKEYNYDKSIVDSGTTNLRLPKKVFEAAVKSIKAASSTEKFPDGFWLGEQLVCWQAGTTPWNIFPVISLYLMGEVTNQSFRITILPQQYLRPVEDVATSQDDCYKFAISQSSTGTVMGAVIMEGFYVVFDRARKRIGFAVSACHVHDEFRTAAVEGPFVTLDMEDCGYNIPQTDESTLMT
- Experimental Protocol: Caliper BACE1 activity assay (microfluidic capillary electrophoresis)
- Type: biochemical
- Set-up: containing human BACE1 (extracellular domain)
- Measurement Setup: 12 nM rhBACE1, 1 μM FAM-substrate, pH 4.4
Positions of bridges follow the written chain, without caps; N, C: chain ends. Residues, ends and D or L forms follow the SMILES beside them.
Let's look at some compounds and their measured pIC50.
Reminder that pIC50 is minus the log10 of a molar concentration.

INSERT INTO measurements (compound, val) VALUES
  ('CC[C@H](C)[C@@H]1NC(=O)CNC(=O)[C@H](CC(C)C)NC(=O)[C@H](CC(C)C)NC(=O)[C@H](CCCNC(=N)N)NC(=O)[C@@H](NC(=O)[C@H](Cc2ccc(O)cc2)NC(=O)[C@H](CCSC)NC(=O)[C@H](CO)NC(=O)[C@H](CCC(=O)O)NC(=O)[C@H](CCC(=O)O)NC(=O)[C@H](CC(N)=O)NC(C)=O)CSSC[C@@H](C(=O)N[C@@H](C)C(N)=O)NC(=O)CNC1=O [BACE054] (Ac-NEESMYCRLLGIGCA-NH2; disulfide 7-14)', 8.15);

Q: Name the recorded pIC50 for CC[C@H](C)[C@@H]1NC(=O)CNC(=O)[C@H](CC(C)C)NC(=O)[C@H](CC(C)C)NC(=O)[C@H](CCCNC(=N)N)NC(=O)[C@@H](NC(=O)[C@H](Cc2ccc(O)cc2)NC(=O)[C@H](CCSC)NC(=O)[C@H](CO)NC(=O)[C@H](CCC(=O)O)NC(=O)[C@H](C)NC(=O)[C@H](CC(N)=O)NC(C)=O)CSSC[C@@H](C(=O)NCC(N)=O)NC(=O)CNC1=O [BACE043] (Ac-NAESMYCRLLGIGCG-NH2; disulfide 7-14) .
Result: 7.89

The reported numbers originate from patent US9624269B2.
